// data source = ChEMBL document CHEMBL1201862

# GI50 annotations
Test system: LOX IMVI
method: NCI tumour cell line growth inhibition, 48 h
The source made the active and inactive calls. Cut-off read from the data, not from the text of the source: active = GI50 up to about 1.1 µM and inactive = higher.

compound	GI50
O=C1c2ccccc2C(=O)c2nc(-c3ccccc3)c(-c3ccccc3)nc21	8.04 µM (inactive)
CC1(C)Oc2ccc(NC(=O)CCC(N)C(=O)O)cc2O1 (stereo unspecified)	> 100 µM (inactive)
CCCCCN(CCCCC)C(=O)[C@@H](CCC(=O)OCc1ccccc1)NC(=O)c1cc2ccccc2[nH]1	> 100 µM (inactive)
CC1=NN(C(=O)c2ccc(Cl)cc2)C(=O)/C1=C/c1c(O)cc(O)c2ccccc12	> 100 µM (inactive)
N#C/C(=C/c1cccc2ccccc12)C(=O)c1ccccc1	19.5 µM (inactive)
COC(=O)c1cccc2cccc(C(=O)Nc3ccc(C)cc3C)c12	> 100 µM (inactive)
COc1ccccc1-c1cc(=O)c2ccccc2n1C1CC1	3.89 µM (inactive)
CN1CCc2cc(N)cc3c2C1Cc1ccc(O)c(O)c1-3 (stereo unspecified)	18.6 µM (inactive)
C=C(C)[C@@]1(OC(=O)c2cc([N+](=O)[O-])cc([N+](=O)[O-])c2)C[C@@H]2CCCC[C@@H]21	> 100 µM (inactive)
COc1ccc2c(c1)C(N)=C(Cc1ccncc1)C2=O	> 100 µM (inactive)
COc1cc(/C=c2/c3ccccc3n3c2cc(-c2ccccc2)[n+]3C)cc(OC)c1OC	3.69 µM (inactive)
CC(C)(C)OC(=O)CCC1NC(=O)[C@@H]2Cc3c([nH]c4ccccc34)C(C3CCCCC3)N2C1=O (stereo partly specified)	26.4 µM (inactive)
COc1cccc2c(NNc3ccccc3)c3ccc([N+](=O)[O-])cc3nc12	13.6 µM (inactive)
O=C(Cc1ccccc1)NN1C(=O)C(Cl)C1c1cc(Br)cc(Br)c1O (stereo unspecified)	9.95 µM (inactive)
CC(=O)Oc1ccc2c(c1)CC[C@@H]1C2[C@@H](O[N+](=O)[O-])C[C@@]2(C)C1CC[C@@H]2O[N+](=O)[O-] (stereo partly specified)	13.7 µM (inactive)
CCCCCCC(O)C/C=C/CCCCCC/C(C(=O)OC)=C(/O)C(=O)OCC (stereo unspecified)	> 100 µM (inactive)
CC(C)=CCC\C(C)=C/C=C/C(C)=C\C=C\C(C)=C/C=C/C=C(C)\C=C\C=C(C)/C=C/C=C(/C)CCC=C(C)C	> 100 µM (inactive)
[N-]=[N+]=C1C(=O)c2ccccc2-c2ccccc21	25.9 µM (inactive)
OC12CCCCCC1(N1CCOCC1)c1ccccc12 (stereo unspecified)	> 100 µM (inactive)
S=C(NCCCCCCNC(=S)Nc1c2ccccc2nc2ccccc12)Nc1c2ccccc2nc2ccccc12	72.4 µM (inactive)
O=[N+]([O-])c1nccn1CC(O)c1ccc(F)cc1 (stereo unspecified)	> 100 µM (inactive)
Cc1ccc(C2(O)CC(c3ccc([N+](=O)[O-])o3)=NN2C(=O)COc2ccc(Cl)cc2)cc1 (stereo unspecified)	4.59 µM (inactive)
O=[N+]([O-])c1cnccc1-n1nnc2ccccc21	12.6 µM (inactive)
COC(=O)c1nc(Cl)nc(Cl)c1Cl	13.4 µM (inactive)
O=C(c1ccc(Cl)cc1)C1OC12C(=O)Nc1ccccc12 (stereo unspecified)	1.45 µM (inactive)
COC(=O)C1=C(C)N(NC(N)=O)C2(N)N(NC(N)=O)C(C)=C(C(=O)OC)C12C(=O)OC (stereo unspecified)	> 100 µM (inactive)
CC(C)C(=O)[C@@]1(C)SC[C@H]2CCN=C21	> 100 µM (inactive)
CCOC(=O)C1(C(=O)OCC)OC(=O)NC2=C1CCCC2	> 100 µM (inactive)
O=S(=O)(O)c1cc(S(=O)(=O)O)c2c(Nc3ccnc4ccccc34)ccc(S(=O)(=O)O)c2c1	> 100 µM (inactive)
Nc1nc2ncn(CC(O)CO)c2c(=S)[nH]1 (stereo unspecified)	> 100 µM (inactive)
O=NN(CCCl)C(=O)NCCCl	38 µM (inactive)
Cc1ccc(S(=O)(=O)NC(=O)NCC(N)=O)cc1	> 100 µM (inactive)
O=C(/C=C1/Nc2ccc([N+](=O)[O-])cc2NC1O)c1cccc([N+](=O)[O-])c1 (stereo unspecified)	22.2 µM (inactive)
CC(C(=O)OCc1ccccc1)(c1ccco1)N1C(=O)OC(c2ccccc2)C1c1ccccc1 (stereo unspecified)	14.7 µM (inactive)
Clc1ccc(C2=NCON=C2c2ccc(Cl)cc2)cc1	15.1 µM (inactive)
Nn1c(SCC(=O)O)nc2ccccc2c1=O	> 100 µM (inactive)
Nc1ncnc2c1ncn2C1OC(CSCc2ccc(Cl)cc2)C(O)C1O (stereo unspecified)	37.3 µM (inactive)
C=C(C)[C@@H]1CC[C@]2(C)CC[C@]3(C)[C@H](CC[C@@H]4[C@@]5(C)CC[C@H](OC(=O)c6ccccc6)C(C)(C)[C@@H]5CC[C@]43C)[C@@H]12	> 100 µM (inactive)
CCN(CC)CCNc1ccc2nnn3c4ccc(OC)cc4c(=O)c1c23	2.22 µM (inactive)
CO/N=C(\C)c1ccc(Nc2nc3ccccc3c3occc23)cc1	15.3 µM (inactive)
COc1ccc(C2S/C(=C\c3ccc([N+](=O)[O-])cc3)C(=O)N2NC(=O)Cc2ccccc2)cc1 (stereo unspecified)	> 100 µM (inactive)

---

System: PC-3
method: NCI tumour cell line growth inhibition, 48 h
Activity calls are given as the source filed them. Rule as the data show it: active = GI50 up to about 1.1 µM and inactive = higher.
Classes used: y (active), n (inactive)

molecule	target-or-system	group-label
COC(=O)C1CCOC(C)N1C(=O)OC(C)(C)C (stereo unspecified)	PC-3	n
Cc1cccc(NC(=S)N/N=C(/c2ccccc2)c2ccccn2)c1	PC-3	y
Cc1ccc(S(=O)(=O)NC(=O)NC2=NC(C)(C)N(c3ccc(Cl)c(Cl)c3)C(N)=N2)cc1	PC-3	y
O=[N+]([O-])/C(Cl)=C(\NCCO)C(Cl)=C(Cl)Cl	PC-3	n
CCCC(CCC(=O)O)(CCC(=O)O)[N+](=O)[O-]	PC-3	n
CCCCN(Cc1ccccc1)/C(=N/C#N)N(Cc1ccccc1)Cc1ccccc1	PC-3	n
CC(=N/NC(N)=S)/C(C)=N/NC(N)=S	PC-3	n
C[C@H](N)C(=O)Nc1ccc(-c2nc3ccccc3s2)cc1Cl	PC-3	n
O=C(O)/C(Cc1c[nH]nn1)=N\O	PC-3	n
C[N+](C)(N)CCC[N+](C)(C)N	PC-3	n
COC1=CC(=O)c2c(cc(COP(N)(=O)N(CCBr)CCBr)n2C)C1=O (stereo unspecified)	PC-3	y

---

System: MDA-MB-435
method: NCI tumour cell line growth inhibition, 48 h
The source made the active and inactive calls. No stated cut-off is given here; in the data, active = GI50 up to about 1.1 µM and inactive = higher.
Labels: active, inactive

compound	group-label
CC(=O)Oc1ccc2c(c1)CC[C@@H]1C2[C@@H](O[N+](=O)[O-])C[C@@]2(C)C1CC[C@@H]2O[N+](=O)[O-] (some centres not stated)	inactive
COc1ccccc1NC(=S)N/N=C(/c1ccccc1)c1ccccn1	active
COC(=O)C(Cc1ccccc1)C(=O)NC(CNC(=O)OCc1ccccc1)C(=O)OCc1ccccc1 (configuration not stated)	inactive
Cc1nn(C(=O)c2ccc(Cl)cc2)c2c1C(c1ccccc1[N+](=O)[O-])SC(=N)N2 (configuration not stated)	inactive
O=c1[nH]c(C23CC4CC(CC(C4)C2)C3)cc2c1c(=O)oc1ccccc12	inactive
Cn1cc(-c2ccc(CCOC3CCCCO3)cc2)c2c(C#N)cccc21 (configuration not stated)	inactive
O=c1ccn(C2OC(CN(O)CCC3C(CO)OC(n4ccc(=O)[nH]c4=O)C3O)C(O)C2O)c(=O)[nH]1 (configuration not stated)	inactive
N#Cc1ccc(/C=[N+](/C=c2ccc(=C=[N-])cc2)N(CCO)C2=NCCN2)cc1	inactive
COc1ccc(C2=C(Cl)C(=O)N(c3ccc(OC)cc3OC)C(=O)C2(Cl)Cl)cc1	inactive
N#Cc1cc2c(n(C3OC(CO)C(O)C(O)C3O)c1=S)CCCCC2 (configuration not stated)	inactive
Cc1[nH]c(C)c(CN(C)C)c1CN(C)C	inactive
Nc1ccccc1OCc1cc(=O)c(OCc2ccccc2)co1	inactive
O=C(NCCC1CN(C(=O)OCc2ccccc2)c2ccccc21)OCc1ccccc1 (configuration not stated)	inactive
O=c1nc2ccc3sc4ccccc4c(=O)c3n2c(=O)[nH]1	inactive
N#CC(C#N)=C(N)/C(C#N)=C/c1cc(O)c(O)c(Br)c1	inactive
O=C1NC(c2cccc(OCc3ccccc3)c2)Nc2ccccc21 (configuration not stated)	active
CS(=N)(=O)CCC(N)P(=O)(O)O (configuration not stated)	inactive
O=C(c1ccccc1)N1C(=S)NC(=N/c2ccccc2)/C1=N\c1ccccc1	inactive
O=C(/C=C/c1ccc(Cl)c(Cl)c1)CCN1CCN(CCC(=O)/C=C/c2ccc(Cl)c(Cl)c2)CC1	inactive
Sc1nn2c(COc3cccc(OCc4nnc5sc(S)nn45)c3)nnc2s1	inactive
c1ccc2c(c1)nnn2C1CCCCO1 (configuration not stated)	inactive
C[C@H](N)C(=O)Nc1ccc(-c2nc3ccccc3s2)cc1Cl	inactive
